- assay.protocol: activity coefficient (dimensionless); of the first substance listed, at infinite dilution; xn = mol fraction of the nth substance listed
- measurement.conditions: 368.15 K; 101.33 kPa; Liquid; Chromatography; x1 = 0
quantity.name: activity coefficient

• CCCCO [butan-1-ol] + CC[N+]1(C)CCOCC1.N#CN=C=[N-] = 2.86
• CCCO [propan-1-ol] + CC[N+]1(C)CCOCC1.N#CN=C=[N-] = 1.83
• CO [methanol] + CC[N+]1(C)CCOCC1.N#CN=C=[N-] = 0.684
• CCCC=O [butanal] + CC[N+]1(C)CCOCC1.N#CN=C=[N-] = 4.17
• CCOC(C)=O [ethyl acetate] + CC[N+]1(C)CCOCC1.N#CN=C=[N-] = 6.96
• C#CCCCC [1-hexyne] + CC[N+]1(C)CCOCC1.N#CN=C=[N-] = 28.9
• C1CCOC1 [tetrahydrofuran] + CC[N+]1(C)CCOCC1.N#CN=C=[N-] = 3.95
• C#CCCCCCC [1-octyne] + CC[N+]1(C)CCOCC1.N#CN=C=[N-] = 86.8
• Cc1ccc(C)cc1 [1,4-dimethylbenzene] + CC[N+]1(C)CCOCC1.N#CN=C=[N-] = 14.9
• CCC(C)(C)OC [2-methoxy-2-methylbutane] + CC[N+]1(C)CCOCC1.N#CN=C=[N-] = 64.3
• CC(C)OC(C)C [diisopropyl ether] + CC[N+]1(C)CCOCC1.N#CN=C=[N-] = 130
• C=Cc1ccccc1 [styrene] + CC[N+]1(C)CCOCC1.N#CN=C=[N-] = 7.43
• C#CCCCCC [1-heptyne] + CC[N+]1(C)CCOCC1.N#CN=C=[N-] = 51.6
• C=CCCCCCCCC [1-decene] + CC[N+]1(C)CCOCC1.N#CN=C=[N-] = 718
• CCCC(C)=O [pentan-2-one] + CC[N+]1(C)CCOCC1.N#CN=C=[N-] = 5.98
• C=CCCCCCC [oct-1-ene] + CC[N+]1(C)CCOCC1.N#CN=C=[N-] = 307
• c1ccncc1 [pyridine] + CC[N+]1(C)CCOCC1.N#CN=C=[N-] = 2.1
• CCCCCCCCCC [decane] + CC[N+]1(C)CCOCC1.N#CN=C=[N-] = 1500
• Cc1cccc(C)c1 [1,3-dimethylbenzene] + CC[N+]1(C)CCOCC1.N#CN=C=[N-] = 15.2
